Target: human GLP-1 receptor (GLP-1R) (human, UniProt P43220 24-463)
Sequence (P43220 24-463): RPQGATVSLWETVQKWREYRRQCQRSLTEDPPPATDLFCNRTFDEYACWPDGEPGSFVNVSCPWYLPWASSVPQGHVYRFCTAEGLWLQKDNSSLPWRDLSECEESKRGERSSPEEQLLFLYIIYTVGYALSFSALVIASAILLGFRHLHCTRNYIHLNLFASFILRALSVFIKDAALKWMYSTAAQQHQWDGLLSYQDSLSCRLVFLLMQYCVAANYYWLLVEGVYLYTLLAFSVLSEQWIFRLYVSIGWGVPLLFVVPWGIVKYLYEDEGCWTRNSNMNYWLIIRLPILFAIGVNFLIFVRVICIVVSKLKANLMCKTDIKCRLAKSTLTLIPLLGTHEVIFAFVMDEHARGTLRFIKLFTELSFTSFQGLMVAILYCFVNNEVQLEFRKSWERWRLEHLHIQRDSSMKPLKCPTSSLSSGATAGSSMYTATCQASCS
Assay: cell-based or functional assay
Where no end group is shown, it is not given here. [ ]: non-standard residue; d: D form. Formula III = not defined here; Formula II = not defined here; Aib = CC(C)(N)C(=O)O
Below: a set of entries, each annotated with reported GLP-1R pEC 50.
Please state the figure in pEC50; there is no need to write the unit.

GLP-1R pEC 50 in this record for YSHGTFTSDK(Formula II)SKYLDSARAQEFVKWLEDEPSSGAPPPS-NH2 (reading uncertain) [Compound B44] : 7.2

Continuing:
The reported value for WSQGTFTSDK(Formula II)SKYLD[Aib]KRAQEFV[Aib]WLEDEPSSGAPPPS-OH (reading uncertain) [Compound B20] in terms of GLP-1R pEC 50 is 6.5

The binder listed as YSHGTFTSDYSKYLDK(Formula III)KRAQEFVIWLEDEPSSGAPPPS (reading uncertain) [Compound B31] has a reported GLP-1R pEC 50 of 7.4

Entry WSQGTFTSDK(Formula III)SKYLD[Aib]KRAQEFV[Aib]WLEDEPSSGAPPPS-OH (reading uncertain) [Compound B24] , GLP-1R pEC 50 reported as 6.8

Data origin, for the record: patent US20180009871A1
